# EXPERIMENTAL TARGET: HIV-1 JRFL envelope glycoprotein gp41 (N-trimer of the prehairpin intermediate) (HIV-1 strain JRFL)
# ASSAY: cell-based or functional assay
Bridges are numbered along the chain shown (N, C = ends). [ ]: non-standard residue; d: D form.
MEASUREMENT TYPE: IC50, JRFL pseudovirion entry (nM)
Hi! Could you send only the number? It should be in nM, unit omitted.

### Prompt IC50, JRFL pseudovirion entry lookup needed for Ac-G[dA][dC][dD][dY][dP][dE][dW][dQ][dW][dL][dC][dA][dA]G[dK]-NH2 (disulfide 3-12 (inferred)) [PIE7-GK] , thanks.
### Response 15800

### Prompt I'd like to know its IC50, JRFL pseudovirion entry. The binder in question is Ac-G[dA][dC][dD][dY][dP][dE][dW][dQ][dW][dL][dC][dA][dA]G[dK]-NH2 (disulfide 3-12 (inferred); also: dimer, C- to C-terminal link by PEG9 spacer) [C9C(PIE7-GK)2]
### Response 220

### Prompt Dear colleague, I am looking for the recorded IC50, JRFL pseudovirion entry of the following binder: Ac-G[dA][dC][dD][dY][dP][dE][dW][dQ][dW][dL][dC][dA][dA]G[dK]-NH2 (disulfide 3-12 (inferred); also: dimer, C- to C-terminal link by PEG5 spacer) [C5C(PIE7-GK)2]
### Response 200

***
### Prompt Param item = Ac-G[dA][dC][dD][dY][dP][dE][dW][dQ][dW][dL][dC][dA][dA]G[dK]-NH2 (disulfide 3-12 (inferred); also: linked directly to trifunctional crosslinker TSAT) [PIE7-GK short claw] ; retrieve measured IC50, JRFL pseudovirion entry.
### Response 86.6
